Recorded values, source the RNAGym collection of RNA variant scans (doi:10.1073/pnas.2313332121).

B1: TPR t1 (parent)
chain: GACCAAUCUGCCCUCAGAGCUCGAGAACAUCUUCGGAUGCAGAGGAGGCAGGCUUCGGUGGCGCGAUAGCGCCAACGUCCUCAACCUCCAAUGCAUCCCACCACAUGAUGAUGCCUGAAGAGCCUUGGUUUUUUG

Variants of: B1
Experimental Protocol: polymerase ribozyme fitness, log enrichment relative to wild type (log ratio); higher = more active; in vitro selection for triplet polymerase activity
Reported Property: polymerase ribozyme fitness (log ratio)
I'd appreciate a reply containing only the number, no unit.

Lab note: measured polymerase ribozyme fitness (log ratio) of A50C C64U G77A was -0.681

Lab note: measured polymerase ribozyme fitness (log ratio) of G63C C94A was -1.52

Lab note: measured polymerase ribozyme fitness (log ratio) of C34G C53U G60A U87G G110C was -7.9

Lab note: measured polymerase ribozyme fitness (log ratio) of G117A U125A was -3.14

Lab note: measured polymerase ribozyme fitness (log ratio) of C8G C20G C72U A95G was -3.64
